Below, each of the compounds is paired with its reported melting point value.

# query: melting point of entry "Cc1ccc(N2CN(C(C)(C)C)C3=NN=CC3=C2N)cc1" 203 to 204 °C

# query: melting point of entry O=c1ccc(Cl)cn1[C@@H]1c2cc([N+](=O)[O-])ccc2OCC[C@H]1O (relative stereo) 219 to 222 °C

# query: melting point of entry "CC(C)(C)C(=O)c1c[nH]c2ncc(N3Cc4ccccc4C3=O)nc12" 287 to 289 °C

###

assay-endpoint: melting point

molecule | melting point
Nc1cc(Cl)c([N+](=O)[O-])cc1OC(=O)c1cccc(C(=O)Oc2cc([N+](=O)[O-])c(Cl)cc2N)c1 | 129 to 130 °C
COc1cc2c(sc3nc(C)c(CO)n32)c(OC)c1OC | 196 °C

# query: melting point of entry "CCOC(=O)NNS(=O)(=O)c1ccc(C)cc1" 105 to 106 °C

# query: melting point of entry NC(=O)C(N)c1c(Cl)cccc1Cl (stereo not given) 166 °C

###

assay-endpoint: melting point

Previously resolved entries follow.
molecule | test-value
COc1ccc(CCNC(=O)OC(C)(C)C)cc1OC | 63 to 67 °C
CCOC(=O)C1=C(C)NC(c2cnc(NC(C)=O)s2)=NC1c1ccc(F)cc1Cl (stereo not given) | > 250 °C
C#CCN(c1ccc(C(=O)NCc2cccc(C#N)c2)cc1)C1CCc2cc3nc(C)[nH]c(=O)c3cc21 (racemic) | 260 °C

Now consider a different molecule.
# query: melting point of entry "CCOC(=O)CSc1nc(Cl)c(C)c(NCc2ccc(Cl)cc2)n1" 114 to 117 °C

###

Below, each of the compounds is paired with its reported melting point value.

Previously resolved entries follow.
compound | assay-endpoint | test-value
FC(F)(F)c1cccc(CN2C(=NCCCn3ccnc3)c3cccc4cccc2c34)c1 | melting point | 108 to 109 °C
CN1CCN(Cc2nnc3n2CC(=O)N(C)c2ccc(Cl)cc2-3)CC1 | melting point | 228 to 230 °C
COc1ccc(CCN2CCc3cc(O)c(OC)cc3C2)cc1 | melting point | 170 to 171 °C
CCN(CC)CCc1ccc2cc(N)ccc2n1 | melting point | 93 to 94 °C
Cn1c(C(F)(F)F)cc(=O)n(-c2ccc(Cl)c(S(N)(=O)=O)c2)c1=O | melting point | 257 to 258 °C
COc1ccc2c(c1)CCC(N(C)c1ccc(O)cc1)C2 (stereo unspecified) | melting point | 79 to 82 °C
CCSc1cc2c(c(C(=O)O)c1)OCCO2 | melting point | 153 to 154 °C
CCCCCC(=O)C=P(c1ccccc1)(c1ccccc1)c1ccccc1 | melting point | 54 to 56 °C

# query: melting point of entry C=CC1(N)CN=C(c2ccc(Cl)c(N(C)C)c2F)N=C1C(=O)OC (stereo unspecified) 136 to 137 °C

# query: melting point of entry "COc1ccc(CNC(=O)c2ccccc2N)cc1" 104 to 105 °C

# query: melting point of entry "Cc1nc2c(s1)-c1nc(NCc3ccccc3)ncc1CC2" 152 to 154 °C

# query: melting point of entry COC(=O)C1=C(C)NC(C)=C(C(=O)OCC2COC3(CCCC3)O2)C1c1cccc([N+](=O)[O-])c1 (stereo unspecified) 58 to 67 °C

# query: melting point of entry "C=C1SC(=O)N(c2ccc3cc(-c4ccc(OC)c(C5(C)CCCCC5)c4)ccc3c2)C1=O" 268 to 271 °C

# query: melting point of entry "CC1(C)CC(=O)C2=C(C1)NC1=C(C(=O)CC(C)(C)C1)C2c1cccc(-n2ccnc2)c1" 286 to 288 °C

# query: melting point of entry "CN1CC[C@@H](c2c(O)cc(O)c3c(=O)cc(-c4cc(F)ccc4Br)oc23)[C@@H]1CO" 145 to 147 °C

# query: melting point of entry "CSc1nc(Cl)c(-c2ccccc2)c(NN)n1" 134 to 135 °C

# query: melting point of entry "COc1ccc2c(c1)NCCO2" 59 to 61 °C

# query: melting point of entry "Cn1cc(-c2cc3cccnc3[nH]2)c2ccc(C(=O)NCCC(N)=O)cc21" 277 to 280 °C

# query: melting point of entry "CC(C)c1cc(C(=O)O)cc(C(C)C)c1O" 147 °C

# query: melting point of entry "N#CCc1cccc2c(-c3ccc(Br)cc3)nccc12" 122 °C

# query: melting point of entry "CCOC(=O)c1cccc(-n2nc(C(=O)OCC)c3csc(N)c3c2=O)c1" 159 to 160 °C
